- Test system: Staphylococcus aureus
- Method Notes: Antibacterial activity against Staphylococcus aureus KCTC 503 assessed as growth inhibition after 20 hr by two-fold serial dilution method
- Format: functional
- Particulars: KCTC 503, 20 h
Endpoint Name: log10 MIC (log10 of the value in µg/mL)
Record value = log10 of MIC given in µg/mL.

Use the examples below as a reference point.
Tested on Staphylococcus aureus: `O=C(O)CN1C(=O)/C(=C/c2ccc3cc(OCc4ccc([N+](=O)[O-])cc4)ccc3c2)SC1=S` . Observed log10 MIC: 1.51

Measured on Staphylococcus aureus, `O=C(O)CN1C(=O)/C(=C/c2ccc3cc(OCc4cccc(Br)c4)ccc3c2)SC1=S` has a documented log10 MIC of 1.81

The compound `O=C(O)CN1C(=O)/C(=C/c2ccc3cc(OCc4ccc(C(F)(F)F)cc4)ccc3c2)SC1=S` on Staphylococcus aureus: log10 MIC was 0.60

Tested system Staphylococcus aureus; log10 MIC recorded for `CN(C)c1ccc(COc2ccc3cc(/C=C4\SC(=S)N(CC(=O)O)C4=O)ccc3c2)cc1` was 1.81

Summary line: `CCn1cc(C(=O)O)c(=O)c2cc(F)c(N3CCNCC3)cc21` , Staphylococcus aureus, reported log10 MIC = 0.30

Tested system Staphylococcus aureus; log10 MIC recorded for `O=C(O)CN1C(=O)/C(=C/c2ccc3cc(OCc4ccc(F)cc4)ccc3c2)SC1=S` was 0.60

Given the compound `Cc1ccc(COc2ccc3cc(/C=C4\SC(=S)N(CC(=O)O)C4=O)ccc3c2)cc1` and test system Staphylococcus aureus, the measured log10 MIC is 0.60

Item `COc1ccc(COc2ccc3cc(/C=C4\SC(=S)N(CC(=O)O)C4=O)ccc3c2)cc1OC` was tested on Staphylococcus aureus; the reported log10 MIC is 0.90

Fill in: Staphylococcus aureus log10 MIC for `O=C(O)CN1C(=O)/C(=C/c2ccc3cc(OCc4ccc(Br)cc4)ccc3c2)SC1=S` = 0.30

Result for `O=C(O)CN1C(=O)/C(=C/c2ccc3cc(OCc4ccc(Cl)cc4)ccc3c2)SC1=S` , tested on Staphylococcus aureus, log10 MIC: 0.60

New cases:
Here `COc1ccc(COc2ccc3cc(/C=C4\SC(=S)N(CC(=O)O)C4=O)ccc3c2)cc1` was tested on Staphylococcus aureus, and its log10 MIC came to 0.90

Tested system Staphylococcus aureus; log10 MIC recorded for `Cc1onc(-c2ccccc2)c1C(=O)N[C@@H]1C(=O)N2[C@@H]1SC(C)(C)[C@@H]2C(=O)O` was 0.00

So the reported log10 MIC for `O=C(O)CN1C(=O)/C(=C/c2ccc3cc(OCc4ccccc4)ccc3c2)SC1=S` , on Staphylococcus aureus, turned out to be 1.81
